Where do the numbers come from? From paper PMC6651501.

Tested on: HT-29
Experiment: In vitro anti-proliferative MTT assay
Conditions: Homo sapiens, HT-29, 72 h, read-out: IC50 HT-29
PARAMETER_MEASURED: IC50 (µM)
Expressed in µM, but write only the number.

// known answers, use as guide
COc1cc(NC(=O)CCCCCC(=O)NO)ccc1Nc1nccc(-c2cn(C)c3ccccc23)n1: 4.13
C=CC(=O)Nc1cc(Nc2nccc(-c3cn(C)c4ccccc34)n2)c(OC)cc1N(C)CCN(C)C: 0.87
Cn1cc(-c2ccnc(Nc3ccc(C(=O)NCCCCCC(=O)NO)cc3)n2)c2ccccc21: 2.94

# input compound: `Cn1cc(-c2ccnc(Nc3ccc(C(=O)NCCCCCCC(=O)NO)cc3)n2)c2ccccc21` ; wanted: its IC50
1.99

Would you mind doing `COc1cc(NC(=O)CCCCCCC(=O)NO)ccc1Nc1nccc(-c2cn(C)c3ccccc23)n1` as well?
0.79

====

Biological target: EGFR (T790M) (Homo sapiens, UniProt P00533, T790M)
Sequence (P00533 25-1210 T790M): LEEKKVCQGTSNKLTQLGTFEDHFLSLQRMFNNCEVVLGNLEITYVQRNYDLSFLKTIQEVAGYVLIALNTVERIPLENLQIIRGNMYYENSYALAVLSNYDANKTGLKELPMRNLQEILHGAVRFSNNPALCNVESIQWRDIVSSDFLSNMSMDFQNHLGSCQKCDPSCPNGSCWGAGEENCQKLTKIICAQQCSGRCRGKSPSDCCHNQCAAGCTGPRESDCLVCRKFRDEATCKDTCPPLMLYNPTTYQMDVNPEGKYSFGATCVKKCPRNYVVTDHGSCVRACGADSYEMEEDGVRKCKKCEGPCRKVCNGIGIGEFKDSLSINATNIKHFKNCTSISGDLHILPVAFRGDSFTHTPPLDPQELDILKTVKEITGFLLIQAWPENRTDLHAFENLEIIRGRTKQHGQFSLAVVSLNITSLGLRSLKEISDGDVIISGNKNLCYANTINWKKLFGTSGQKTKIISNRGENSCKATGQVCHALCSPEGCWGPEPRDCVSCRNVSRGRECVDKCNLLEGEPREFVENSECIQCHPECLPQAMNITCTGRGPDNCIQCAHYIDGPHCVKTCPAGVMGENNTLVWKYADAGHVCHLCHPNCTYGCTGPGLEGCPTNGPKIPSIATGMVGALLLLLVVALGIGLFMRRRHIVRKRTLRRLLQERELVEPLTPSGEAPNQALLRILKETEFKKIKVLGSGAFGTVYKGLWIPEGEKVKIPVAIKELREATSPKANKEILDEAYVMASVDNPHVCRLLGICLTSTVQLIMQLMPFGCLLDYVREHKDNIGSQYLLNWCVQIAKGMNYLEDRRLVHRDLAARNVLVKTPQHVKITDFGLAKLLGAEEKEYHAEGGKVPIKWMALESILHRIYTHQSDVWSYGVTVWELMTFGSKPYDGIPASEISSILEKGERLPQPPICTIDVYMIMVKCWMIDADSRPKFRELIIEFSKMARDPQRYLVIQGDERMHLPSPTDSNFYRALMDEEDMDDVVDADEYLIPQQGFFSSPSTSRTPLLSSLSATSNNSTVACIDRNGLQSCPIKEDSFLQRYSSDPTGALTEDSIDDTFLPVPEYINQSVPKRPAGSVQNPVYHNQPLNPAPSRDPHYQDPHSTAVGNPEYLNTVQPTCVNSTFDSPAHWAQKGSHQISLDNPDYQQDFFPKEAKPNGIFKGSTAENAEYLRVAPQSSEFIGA
Experiment: In vitro EGFR inhibition, Kinase-Glo Plus luminescence kinase assay
Assay type: biochemical
Conditions: 1 μM compound; read-out: EGFR (T790M) Inhibition Rate at 1 μM
PARAMETER_MEASURED: inhibition at 1 µM
Reply with the number, then its unit.

// known answers, use as guide
Cn1cc(-c2ccnc(Nc3ccc(C(=O)NCCC(=O)NO)cc3)n2)c2ccccc21: 36%
COc1cc(NC(=O)CCCCCC(=O)NO)ccc1Nc1nccc(-c2cn(C)c3ccccc23)n1: 13%

# input compound: `COc1cc(NC(=O)CCCCC(=O)NO)ccc1Nc1nccc(-c2cn(C)c3ccccc23)n1` ; wanted: its inhibition at 1 µM
12%

Would you mind doing `Cn1cc(-c2ccnc(Nc3ccc(C(=O)NCCCCCCC(=O)NO)cc3)n2)c2ccccc21` as well?
44%

Would you mind doing `Cn1cc(-c2ccnc(Nc3ccc(C(=O)NCCCCC(=O)NO)cc3)n2)c2ccccc21` as well?
42%

Would you mind doing `Cn1cc(-c2ccnc(Nc3ccc(C(=O)NCCCCCC(=O)NO)cc3)n2)c2ccccc21` as well?
35%

Would you mind doing `COc1cc(NC(=O)CCC(=O)NO)ccc1Nc1nccc(-c2cn(C)c3ccccc23)n1` as well?
38%

Would you mind doing `COc1cc(NC(=O)CCCCCCC(=O)NO)ccc1Nc1nccc(-c2cn(C)c3ccccc23)n1` as well?
15%

====

System: A549
Assay: In vitro anti-proliferative MTT assay
Format: cell-based
Settings: Homo sapiens, 72 h
Catalogue of molecules with associated pIC50
Worth noting: pIC50 values are minus log10 of concentrations stated in mol/L.

// known answers, use as guide
COc1cc(NC(=O)CCCCCCC(=O)NO)ccc1Nc1nccc(-c2cn(C)c3ccccc23)n1: 5.66
O=C(CCCCCCC(=O)Nc1ccccc1)NO [SAHA, suberoylanilide hydroxamic acid, reference compound]: 5.67

# input molecule: `Cn1cc(-c2ccnc(Nc3ccc(C(=O)NCCCCCC(=O)NO)cc3)n2)c2ccccc21` ; wanted: its pIC50
5.45

Would you mind doing `C=CC(=O)Nc1cc(Nc2nccc(-c3cn(C)c4ccccc34)n2)c(OC)cc1N(C)CCN(C)C` as well?
5.71

Would you mind doing `Cn1cc(-c2ccnc(Nc3ccc(C(=O)NCCCCCCC(=O)NO)cc3)n2)c2ccccc21` as well?
5.62

Would you mind doing `COc1cc(NC(=O)CCCCCC(=O)NO)ccc1Nc1nccc(-c2cn(C)c3ccccc23)n1` as well?
5.29

====

Biological target: EGFR (T790M) (Homo sapiens, UniProt P00533, T790M)
Test: In vitro EGFR inhibition, Kinase-Glo Plus luminescence kinase assay
Format: biochemical
Conditions: 1 μM compound; read-out: EGFR (T790M) Inhibition Rate at 1 μM
PARAMETER_MEASURED: inhibition at 1 µM (%)
Expressed in %, but write only the number.

// known answers, use as guide
Cn1cc(-c2ccnc(Nc3ccc(C(=O)NO)cc3)n2)c2ccccc21 [Compound 10A]: 41
COc1cc(NC(=O)CCCC(=O)NO)ccc1Nc1nccc(-c2cn(C)c3ccccc23)n1 [Compound 9B]: 37
Cn1cc(-c2ccnc(Nc3ccc(C(=O)NCCCC(=O)NO)cc3)n2)c2ccccc21 [Compound 5B]: 34

--- query ---
# input molecule: Cn1cc(-c2ccnc(Nc3ccc(C(=O)Nc4ccccc4N)cc3)n2)c2ccccc21 [Compound 10B] ; wanted: its inhibition at 1 µM
40
